target_of_assay: T1, Bicoid DBD-GST (Bcd) (UniProt P09081 83-170)
T1 sequence: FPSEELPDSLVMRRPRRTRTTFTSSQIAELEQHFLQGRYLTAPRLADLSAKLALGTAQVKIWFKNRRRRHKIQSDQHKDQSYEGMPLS
assay_method_text: competitive fluorescence anisotropy (HiP-FA); mean of replicates 63.883, 64.716; HiP-FA: 33 mM phosphate pH 7.0, 90 mM NaCl, 0.01% Tween 20, 0.1 mM DTT, 0.5% agarose; conventional titration and EMSA: 20 mM Tris-acetate pH 7.0, 50 nM (sic) NaCl, 0.01% Tween-20, 0.1 mM DTT
experimental_conditions: protein: recombinant; tags: N-terminal GST; blunt, G:G mismatch at position 6
property: pKd
Scale for pKd: -log10 of concentration given in mol/L; no unit attached.

Query: Bench note: what pKd did Bcd competitor 13 (A5C) (dsDNA) DNA 1: TCGACGGTCATCCCTA DNA 2: TAGGGATGACGGTCGA show?
Reply: 7.19
